# SYSTEM: recombinant human ACC1 (rhACC1) (Homo sapiens, UniProt Q13085, DEL44-44)
# Construct: recombinant baculovirus containing full length human ACC1 cDNA
# EXPERIMENTAL PROTOCOL: recombinant hACC1 Transcreener assay (direct inhibition of ACC1 activity)
# MEASUREMENT SETUP: Transcreener ADP detection FP assay, 50 μM ATP, 30 μM acetyl-CoA, 120 min at 25° C.
PROPERTY: IC50 (µM)

{"MOLECULE": "CC(C)n1ncc2c1C(=O)CC1(CCN(C(=O)c3ccc(N4CCOCC4)cn3)CC1)C2 [Example 11A-42]", "SYSTEM": "recombinant human ACC1 (rhACC1) (Homo sapiens, UniProt Q13085, DEL44-44)", "IC50 / µM": 11.7}
{"MOLECULE": "CC(C)(C)n1ncc2c1C(=O)CC1(CCN(C(=O)c3cccc(-c4cc[nH]n4)c3)CC1)C2 [Example 11A-23]", "SYSTEM": "recombinant human ACC1 (rhACC1) (Homo sapiens, UniProt Q13085, DEL44-44)", "IC50 / µM": 0.0871}
{"MOLECULE": "CCn1ncc2c1C(=O)CC1(CCN(C(=O)c3ccc(Cl)c(C)c3)CC1)C2", "SYSTEM": "recombinant human ACC1 (rhACC1) (Homo sapiens, UniProt Q13085, DEL44-44)", "IC50 / µM": 4.34}

P = Cc1cc(C(=O)N2CCC3(CC2)CC(=O)c2c(cnn2C(C)C)C3)ccc1Cl
Q = CC(C)(C)n1ncc2c1C(=O)CC1(CCN(C(=O)c3nc4ccccc4nc3N)CC1)C2
Ask: // select label with min value of measured IC50 from [ P , Q ] Provide the label of your selected option as the answer.
Reply: P
(P: 0.267 µM, Q: 0.527 µM)

====

# SYSTEM: recombinant human ACC2 (rhACC2) (Homo sapiens, UniProt O00763, V2141I)
# Construct: a full length Cytomax clone of ACC2 was purchased from Cambridge Bioscience Limited
# Sequence (O00763 whole entry V2141I): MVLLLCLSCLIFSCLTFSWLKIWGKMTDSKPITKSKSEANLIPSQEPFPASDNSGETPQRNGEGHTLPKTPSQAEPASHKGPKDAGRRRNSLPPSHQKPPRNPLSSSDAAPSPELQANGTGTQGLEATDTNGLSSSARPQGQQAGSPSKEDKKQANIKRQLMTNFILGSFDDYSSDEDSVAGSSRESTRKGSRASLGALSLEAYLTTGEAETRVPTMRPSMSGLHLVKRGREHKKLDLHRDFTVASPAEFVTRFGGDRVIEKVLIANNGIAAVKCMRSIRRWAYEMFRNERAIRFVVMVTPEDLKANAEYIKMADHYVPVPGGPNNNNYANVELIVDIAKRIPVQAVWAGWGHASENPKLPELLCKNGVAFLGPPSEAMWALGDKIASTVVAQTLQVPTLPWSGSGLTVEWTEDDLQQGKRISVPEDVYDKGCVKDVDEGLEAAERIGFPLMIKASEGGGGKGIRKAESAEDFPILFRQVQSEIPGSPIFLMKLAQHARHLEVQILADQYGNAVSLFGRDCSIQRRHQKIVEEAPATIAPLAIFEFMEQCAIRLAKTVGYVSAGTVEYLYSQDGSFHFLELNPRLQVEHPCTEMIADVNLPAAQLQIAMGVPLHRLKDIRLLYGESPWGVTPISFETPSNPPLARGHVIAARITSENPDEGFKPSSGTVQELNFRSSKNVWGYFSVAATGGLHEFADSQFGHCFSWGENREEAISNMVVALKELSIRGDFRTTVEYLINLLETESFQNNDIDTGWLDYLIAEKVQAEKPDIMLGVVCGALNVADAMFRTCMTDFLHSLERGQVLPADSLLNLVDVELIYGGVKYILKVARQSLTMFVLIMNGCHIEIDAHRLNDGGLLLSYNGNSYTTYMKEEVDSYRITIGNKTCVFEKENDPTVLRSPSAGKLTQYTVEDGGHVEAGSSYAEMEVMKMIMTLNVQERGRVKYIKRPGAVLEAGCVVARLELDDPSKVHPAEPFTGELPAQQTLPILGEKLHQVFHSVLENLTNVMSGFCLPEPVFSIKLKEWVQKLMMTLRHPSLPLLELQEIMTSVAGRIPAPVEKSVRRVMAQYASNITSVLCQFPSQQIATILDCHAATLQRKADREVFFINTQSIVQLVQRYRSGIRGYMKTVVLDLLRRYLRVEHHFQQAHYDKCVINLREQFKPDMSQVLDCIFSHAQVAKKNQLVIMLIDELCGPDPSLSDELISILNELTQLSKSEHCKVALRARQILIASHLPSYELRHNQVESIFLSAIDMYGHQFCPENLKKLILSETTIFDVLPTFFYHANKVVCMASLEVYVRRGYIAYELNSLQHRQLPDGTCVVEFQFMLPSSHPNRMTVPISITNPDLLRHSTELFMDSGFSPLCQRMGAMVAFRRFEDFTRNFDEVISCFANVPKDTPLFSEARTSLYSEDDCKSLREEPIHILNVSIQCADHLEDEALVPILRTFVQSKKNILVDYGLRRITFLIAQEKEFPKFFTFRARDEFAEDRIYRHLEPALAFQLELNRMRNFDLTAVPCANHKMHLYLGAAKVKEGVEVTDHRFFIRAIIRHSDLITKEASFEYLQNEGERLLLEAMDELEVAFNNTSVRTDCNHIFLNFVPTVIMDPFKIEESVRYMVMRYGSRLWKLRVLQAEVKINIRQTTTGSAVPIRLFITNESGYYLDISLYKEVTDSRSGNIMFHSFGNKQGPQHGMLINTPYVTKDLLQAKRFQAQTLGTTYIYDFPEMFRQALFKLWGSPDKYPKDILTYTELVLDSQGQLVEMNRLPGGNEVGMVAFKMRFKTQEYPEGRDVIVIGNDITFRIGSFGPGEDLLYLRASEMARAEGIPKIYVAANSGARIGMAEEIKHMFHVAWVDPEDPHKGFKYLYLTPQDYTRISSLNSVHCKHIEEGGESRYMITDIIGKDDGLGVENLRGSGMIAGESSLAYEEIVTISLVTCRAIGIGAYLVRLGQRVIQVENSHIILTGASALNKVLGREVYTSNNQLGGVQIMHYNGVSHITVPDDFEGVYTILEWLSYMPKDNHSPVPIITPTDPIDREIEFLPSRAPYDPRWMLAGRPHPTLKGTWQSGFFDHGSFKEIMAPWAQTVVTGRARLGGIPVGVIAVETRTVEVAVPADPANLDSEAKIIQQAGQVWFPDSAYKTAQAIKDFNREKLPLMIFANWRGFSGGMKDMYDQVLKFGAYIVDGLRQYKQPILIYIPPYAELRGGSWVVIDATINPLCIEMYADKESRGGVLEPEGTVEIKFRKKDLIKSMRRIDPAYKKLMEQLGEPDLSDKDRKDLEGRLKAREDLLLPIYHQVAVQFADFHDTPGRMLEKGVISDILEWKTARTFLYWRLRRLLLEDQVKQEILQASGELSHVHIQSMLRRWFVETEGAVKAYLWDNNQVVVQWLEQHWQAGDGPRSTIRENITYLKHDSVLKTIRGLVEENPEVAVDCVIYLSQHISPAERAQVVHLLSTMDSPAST
# EXPERIMENTAL PROTOCOL: recombinant hACC2 Transcreener assay (direct inhibition of ACC2 activity)
# MEASUREMENT SETUP: Transcreener ADP detection FP assay, 50 μM ATP, 30 μM acetyl-CoA, 50 min at 25° C.
pIC50: −log10 of the molar value.
PROPERTY: pIC50

{"COMPOUND": "CC(C)(C)n1ncc2c1C(=O)CC1(CCN(C(=O)c3ccc4[nH]cnc4n3)CC1)C2 [Example 11A-68]", "pIC50": 6.55}

A = Cc1cccn2cc(C(=O)N3CCC4(CC3)CC(=O)c3c(cnn3C(C)C)C4)nc12 [Example 11A-14]
B = CC(C)(C)n1ncc2c1C(=O)CC1(CCN(C(=O)c3cnc4[nH]cnc4c3)CC1)C2 [Example 11A-39]
Ask: Between the entries labeled A and B , whose measured pIC50 is lower? Your answer should be the label of the entry you select.
Reply: A
(A: 6.60, B: 7.09)

====

# SYSTEM: recombinant human ACC1 (rhACC1) (Homo sapiens, UniProt Q13085, DEL44-44)
# Construct: recombinant baculovirus containing full length human ACC1 cDNA; made in house; host or cells: SF9 insect cells (baculovirus)
# EXPERIMENTAL PROTOCOL: recombinant hACC1 Transcreener assay (direct inhibition of ACC1 activity)
# Assay type: biochemical
# MEASUREMENT SETUP: Transcreener ADP detection FP assay, 50 μM ATP, 30 μM acetyl-CoA, 120 min at 25° C.
pIC50: −log10 of the molar value.
PROPERTY: pIC50

For orientation, consider the following solved cases.
{"MOLECULE": "CC(C)(C)n1ncc2c1C(=O)CC1(CCN(C(=O)c3ccc4cc[nH]c(=O)c4c3)CC1)C2 [Example 2A-31]", "SYSTEM": "recombinant human ACC1 (rhACC1) (Homo sapiens, UniProt Q13085, DEL44-44)", "pIC50": 7.36}
{"MOLECULE": "CC(=O)Nc1cccc(C(=O)N2CCC3(CC2)CC(=O)c2c(cnn2C(C)C)C3)n1 [Example 2A-62]", "SYSTEM": "recombinant human ACC1 (rhACC1) (Homo sapiens, UniProt Q13085, DEL44-44)", "pIC50": 5.38}

A = CC(C)n1ncc2c1C(=O)CC1(CCN(C(=O)c3cccc(-c4c[nH]cn4)c3)CC1)C2 [Example 11A-3]
B = CC(C)n1ncc2c1C(=O)CC1(CCN(C(=O)c3ccc4cnccc4n3)CC1)C2 [Example 2A-63]
C = CC(C)(C)n1ncc2c1C(=O)CC1(CCN(C(=O)c3cnc4[nH]ccc4c3)CC1)C2 [Example 2A-23]
Ask: Hello, I need these entries ordered by pIC50, highest reading first. Thanks! List each label, following the requested order.
Reply: C, A, B
(C: 7.49, A: 7.13, B: 5.03)

P = CC(C)(C)n1ncc2c1C(=O)CC1(CCN(C(=O)c3ccc4[nH]ncc4c3)CC1)C2 [Example 2A-28]
Q = CC(C)(C)n1ncc2c1C(=O)CC1(CCN(C(=O)c3ccnc(-c4cc[nH]n4)c3)CC1)C2 [Example 11A-26]
Ask: # returns the entry with the larger pIC50; inputs P and Q Your answer should be the label attached to the chosen record.
Reply: P

I = CC(C)(C)n1nc(Br)c2c1C(=O)CC1(CCN(C(=O)c3cc(Br)c4[nH]c(=O)[nH]c4c3)CC1)C2 [Example 13A-1]
II = CC(C)n1ncc2c1C(=O)CC1(CCN(C(=O)c3cc(F)c4nc[nH]c4c3)CC1)C2 [Example 2A-36]
Ask: Select one. Lower pIC50: I or II // respond with label for picked entry
Reply: I

1 = CC(C)n1ncc2c1C(=O)CC1(CCN(C(=O)c3cc4ccncc4[nH]3)CC1)C2 [Example 2A-64]
2 = CC(C)(C)n1ncc2c1C(=O)CC1(CCN(C(=O)c3ccc(-c4ncc[nH]4)cc3)CC1)C2 [Example 11A-53]
Ask: # returns the entry with the larger pIC50; inputs 1 and 2 Identify your selection by its label.
Reply: 2

// data source = patent US9139587B2
